# TARGET SYSTEM: canine IL-31 (Canine_IL31) (canine)
# Sequence (chain, as listed by the source limits assumed, form in doubt): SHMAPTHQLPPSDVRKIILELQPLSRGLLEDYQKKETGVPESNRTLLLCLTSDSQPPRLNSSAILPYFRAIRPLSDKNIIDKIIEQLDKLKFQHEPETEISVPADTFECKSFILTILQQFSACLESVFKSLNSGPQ
# ASSAY INFO: SPR (Biacore), immobilised IL-31, 1:1 fit
PROPERTY MEASURED: kon (M⁻¹ s⁻¹)
Express your answer in M⁻¹ s⁻¹, writing the number without its unit.

Fill in the blank: the reported kon of Feline 11E12 1.1 K46Q (antibody, V domains shown) VH: QVLLVQSGAEVKKPGASVKIFCKASGYSFTYYDINWLRQAPEQGLEWMGWIFPGDGGTKYNETFKGRLTLTADTSTNTVYMELSSLRSADTAMYYCARGGTSVIRDAMDYWGQGALVTVSS VL: EIQMTQSPSSLSASPGDRVTITCRASESVDNYGISFMHWYQQKPGQVPKLLIYRASNLESGVPSRFSGSGSGTDFTLTISSLEPEDAATYYCQQSNKDPLTFGQGT is ____. 46400

Fill in the blank: the reported kon of Feline 15H05 2.2 (antibody, V domains shown) VH: QVLLVQSGAEVRTPGASVKIFCKASGYGFTSYTIHWVRQSPAQGLEWMGNINPTSGYTENNQRFKDRLTLTADTSTNTAYMELSSLRSADTAMYYCARWGFKYDGEWSFDVWGAGTTVTVSS VL: EITMTQSPGSLAGSPGQQVTMNCRASQGISIWLSWYQQKPGQHPKLLIYKASNLHIGVPDRFSGSGSGTDFTLTISNLQAEDVASYYCLQSQTYPLTFGGGTKLEIK is ____. 27700

Fill in the blank: the reported kon of Feline 15H05 2.1 (antibody, V domains shown) VH: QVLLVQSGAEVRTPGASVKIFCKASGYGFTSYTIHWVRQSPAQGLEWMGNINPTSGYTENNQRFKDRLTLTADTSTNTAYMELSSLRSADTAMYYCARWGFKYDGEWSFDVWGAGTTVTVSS VL: EIQMTQSPSSLSASPGDRVTITCRASQGISIWLSWYQQKPGKVPKLLIYKASNLHIGVPSRFSGSGSGTDFTLTISSLEPEDAATYYCLQSQTYPLTFGGGTKLEIK is ____. 525000

Fill in the blank: the reported kon of Feline 15H05 1.1 (antibody, V domains shown) VH: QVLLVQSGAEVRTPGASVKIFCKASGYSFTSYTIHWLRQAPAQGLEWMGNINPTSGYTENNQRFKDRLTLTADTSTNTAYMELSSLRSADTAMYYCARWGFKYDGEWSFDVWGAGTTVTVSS VL: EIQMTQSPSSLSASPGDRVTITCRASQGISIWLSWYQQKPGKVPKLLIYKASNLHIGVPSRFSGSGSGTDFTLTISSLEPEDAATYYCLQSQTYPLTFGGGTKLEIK is ____. 27000

Fill in the blank: the reported kon of mouse anti IL-31 antibody 11E12 (antibody, V domains shown) VH: QVQLQQSGAELVKPGASVKLSCKASGYTFKYYDINWVRQRPEQGLEWIGWIFPGDGGTKYNETFKGKATLTTDKSSSTAYMQLSRLTSEDSAVYFCARGGTSVIRDAMDYWGQGTSVTVSS VL: DIVLTQSPASLAVSLGQRATISCRASESVDNYGISFMHWYQQKPGQPPKLLIYRASNLESGIPARFSGSGSRTDFTLTINPVETDDVATYYCQQSNKDPLTFGAGTKLELK is ____. 629000
